System: HAB1
EXPERIMENT_NOTES: Yeast two hybrid of pBD-PYR1 site saturation mutants with pACT-HAB1 on 10 μM ABA, β-galactosidase staining
Assay type: cell-based, Arabidopsis
Design: key: x: Mutations in PYR1 that disrupt ABA-induced binding to PYR1 to HAB1
CONDITION: S. cerevisiae Y190, 10 μM ABA; dead = lack of visible staining in comparison to wild type control
READOUT_NAME: Mutations in PYR1 that disrupt ABA-induced binding to PYR1 to HAB1

# MOLECULE, OBSERVED
measured = [
    ("A89R: PYR1 mutant (protein, UniProt O49686 1-191, looked up, variant A89R) Abscisic acid receptor PYR1: MPSELTPEERSELKNSIAEFHTYQLDPGSCSSLHAQRIHAPPELVWSIVRRFDKPQTYKHFIKSCSVEQNFEMRVGCTRDVIVISGLPRNTSTERLDILDDERRVTGFSIIGGEHRLTNYKSVTTVHRFEKENRIWTVVLESYVVDMPEGNSEDDTRMFADTVVKLNLQKLATVAEAMARNSGDGSGSQVT", "x"),
    ("H115I: PYR1 mutant (protein, UniProt O49686 1-191, looked up, variant H115I) Abscisic acid receptor PYR1: MPSELTPEERSELKNSIAEFHTYQLDPGSCSSLHAQRIHAPPELVWSIVRRFDKPQTYKHFIKSCSVEQNFEMRVGCTRDVIVISGLPANTSTERLDILDDERRVTGFSIIGGEIRLTNYKSVTTVHRFEKENRIWTVVLESYVVDMPEGNSEDDTRMFADTVVKLNLQKLATVAEAMARNSGDGSGSQVT", "x"),
    ("L117A: PYR1 mutant (protein, UniProt O49686 1-191, looked up, variant L117A) Abscisic acid receptor PYR1: MPSELTPEERSELKNSIAEFHTYQLDPGSCSSLHAQRIHAPPELVWSIVRRFDKPQTYKHFIKSCSVEQNFEMRVGCTRDVIVISGLPANTSTERLDILDDERRVTGFSIIGGEHRATNYKSVTTVHRFEKENRIWTVVLESYVVDMPEGNSEDDTRMFADTVVKLNLQKLATVAEAMARNSGDGSGSQVT", "x"),
]
